Below, each of the compounds is paired with its reported pIC50 value.
- Test system: phospho-ERK1/2 (Thr202/Tyr204)
- experimental_protocol: Phospho-ERK cellular assay
- Type: cell-based
- condition_label: Homo sapiens; KYSE-520 cells, 2 h at 37° C, TR-FRET; read-out: pERK IC50
pIC50: −log10 of the molar value.

Use the examples below as a reference point.
N[C@@H]1c2ccnn2CC12CCN(c1cnc(Sc3ccccc3)cn1)CC2 : > 7.00
COc1ccc(Sc2cnc(N3CCC4(CC3)Cn3nccc3[C@H]4N)cn2)c(F)c1 : > 7.00

Query :: Consider the compound `N[C@@H]1c2ccnn2CC12CCN(c1cnc(Sc3ccnc4ccccc34)cn1)CC2` and give its measured pIC50.
Result :: > 7.00

Query :: // next record `N[C@@H]1c2ccnn2CC12CCN(c1cnc(Sc3cccc(F)c3-n3cccn3)cn1)CC2`
Result :: 6.30 to 7.00

Query :: // next record `Cc1cccc(Sc2cnc(N3CCC4(CC3)Cn3nccc3[C@H]4N)cn2)c1C`
Result :: > 7.00

Query :: // next record `N[C@@H]1c2ccnn2CC12CCN(c1cnc(Sc3ccc(C(F)(F)F)cc3)cn1)CC2`
Result :: 6.30 to 7.00

Query :: // next record `N[C@@H]1c2ccnn2CC12CCN(c1cnc(Sc3ccc(F)c(F)c3F)cn1)CC2`
Result :: > 7.00

Query :: // next record `N[C@@H]1c2ccnn2CC12CCN(c1cnc(Oc3ccc(F)cc3)cn1)CC2`
Result :: > 7.00

Query :: // next record `N[C@@H]1c2ccnn2CC12CCN(c1cnc(Oc3ccccc3F)cn1)CC2`
Result :: 6.30 to 7.00
